# EXPERIMENTAL_SYSTEM: HLA-A*0201 (human)
# METHOD_SUMMARY: competitive inhibition of 125I-labelled standard peptide binding to purified HLA, gel filtration; ratio = IC50 standard / IC50 test peptide
MEASURED_ENDPOINT: binding affinity ratio

These solved cases illustrate the format of a correct answer.
VLRMMNDQLM (modifications not checked) [… (PSM, position 660)]; 0.0003
VATARRPRWL (modifications not checked) [… (PSM, position 12)]; 0.0001
VISNDVCA (modifications not checked) [VISNDVCA (PSA, position 174)]; 0.0001

[P] VLVHPQWVLT (modifications not checked) [… (Kallikrein, position 53)]
[Q] VILLGRHSL (modifications not checked) [… (PSA, position 68)]
[R] VLLSYPNKT (modifications not checked) [… (PSM, position 115)]
Query block: Put these in order: smallest binding affinity ratio first, largest last. # answer = labels listed in requested order
Result block: P, R, Q
(P: 0.0001, R: 0.0002, Q: 0.0003)
